# System: 292921-168-R-J2-PDC complex spheroid growth
# protocol details: Anticancer human tumor 292921-168-R-J2-PDC patient-derived pancreatic carcinoma cell line growth inhibition [AhR]; active = viability on the fitted dose curve at most 10% of control; inactive = the rest
# reported conditions: second compound 1 µM; first compound 0.0949 µM
# valid calls are active, inactive; nothing else

# example entries with known answers
compound	qualitative label
O=C(C=Cn1cnc(-c2cc(C(F)(F)F)cc(C(F)(F)F)c2)n1)NNc1cnccn1 + CC(CO)NC(=O)c1cc(-c2ccc(Cl)cc2)nn(-c2cnn(C)c2)c1=O	inactive
CC(C)CC(NC(=O)C(Cc1ccccc1)NC(=O)c1cnccn1)B(O)O (configuration not stated) + Cc1cncc(-c2nc(NCCc3c[nH]c4ccccc34)c3ncn(C(C)C)c3n2)c1	active
Nc1ncn(C2CC(O)C(CO)S2)c(=O)n1 (configuration not stated) + Cc1ccccc1N=Nc1ccc(NC(=O)c2ccnn2C)c(C)c1	inactive

Per the records of this test, what outcome belongs to CCc1c2c(nc3ccc(O)cc13)-c1cc3c(c(=O)n1C2)COC(=O)[C@]3(O)CC + Cc1ccccc1N=Nc1ccc(NC(=O)c2ccnn2C)c(C)c1 ?
active

Record lookup: outcome of this test for CCN(c1cc(-c2ccc(CN3CCOCC3)cc2)cc(C(=O)NCc2c(C)cc(C)[nH]c2=O)c1C)C1CCOCC1 + Cc1cncc(-c2nc(NCCc3c[nH]c4ccccc34)c3ncn(C(C)C)c3n2)c1 ?
inactive

----------
# Test system: 292921-168-R-J2-PDC complex spheroid growth
# protocol details: Anticancer human tumor 292921-168-R-J2-PDC cell line growth inhibition [AhR];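 note: spheroids exposed to compounds for seven days after three days of growth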
# reported conditions: second compound 0.316 µM; first compound 0.316 µM; hits give low values
measured attribute: viability, T/C (%)
A number alone suffices; assume %.

molecule	target or test system	viability, T/C / %
Nc1ccn(C2OC(CO)C(O)C2(F)F)c(=O)n1 (stereo unspecified) + CC(CO)NC(=O)c1cc(-c2ccc(Cl)cc2)nn(-c2cnn(C)c2)c1=O	292921-168-R-J2-PDC complex spheroid growth	9.79
COc1ccc([C@@H](O)c2cc(-c3ncnc4cc(N5CCOCC5)ccc34)c(F)cc2Cl)nn1 + Cc1ccccc1N=Nc1ccc(NC(=O)c2ccnn2C)c(C)c1	292921-168-R-J2-PDC complex spheroid growth	79.2
COc1cccc2c1C(=O)c1c(O)c3c(c(O)c1C2=O)CC(O)(C(=O)CO)CC3OC1CC(N)C(O)C(C)O1 (stereo unspecified) + CC(CO)NC(=O)c1cc(-c2ccc(Cl)cc2)nn(-c2cnn(C)c2)c1=O	292921-168-R-J2-PDC complex spheroid growth	8.73
Nc1ccn(C2OC(CO)C(O)C2(F)F)c(=O)n1 (stereo unspecified) + Cc1cncc(-c2nc(NCCc3c[nH]c4ccccc34)c3ncn(C(C)C)c3n2)c1	292921-168-R-J2-PDC complex spheroid growth	9.06
CC1COCCN1c1cc(C2(S(C)(=N)=O)CC2)nc(-c2ccnc3[nH]ccc23)n1 (stereo unspecified) + Cc1cncc(-c2nc(NCCc3c[nH]c4ccccc34)c3ncn(C(C)C)c3n2)c1	292921-168-R-J2-PDC complex spheroid growth	73.3

Next up:
Print 292921-168-R-J2-PDC complex spheroid growth viability, T/C for COc1cc(C2c3cc4c(cc3C(OC3OC5COC(C)OC5C(O)C3O)C3COC(=O)C23)OCO4)cc(OC)c1O (stereo unspecified) + Cc1cncc(-c2nc(NCCc3c[nH]c4ccccc34)c3ncn(C(C)C)c3n2)c1 .
64.8

----------
Here, each record is paired with measured viability, T/C data.
# Tested on: 292921-168-R-J2-PDC complex spheroid growth
# protocol details: Anticancer human tumor 292921-168-R-J2-PDC cell line growth inhibition [AhR];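 note: spheroids exposed to compounds for seven days after three days of growth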
# reported conditions: second compound 10 µM; first compound 0.000949 µM; hits give low values
Give your result in % as a bare value.

Examples from the recorded data:
compound	target or test system	viability, T/C, %
CC(C)CC(NC(=O)C(Cc1ccccc1)NC(=O)c1cnccn1)B(O)O (stereo not drawn) + Cc1cncc(-c2nc(NCCc3c[nH]c4ccccc34)c3ncn(C(C)C)c3n2)c1	292921-168-R-J2-PDC complex spheroid growth	43.5
Nc1ncn(C2CC(O)C(CO)S2)c(=O)n1 (stereo not drawn) + Cc1ccccc1N=Nc1ccc(NC(=O)c2ccnn2C)c(C)c1	292921-168-R-J2-PDC complex spheroid growth	64

Attention now turns to another entry.
For 292921-168-R-J2-PDC complex spheroid growth, give the measured viability, T/C of the entry CCc1c2c(nc3ccc(O)cc13)-c1cc3c(c(=O)n1C2)COC(=O)[C@]3(O)CC + CC(CO)NC(=O)c1cc(-c2ccc(Cl)cc2)nn(-c2cnn(C)c2)c1=O
38.2

----------
# Tested on: 292921-168-R-J2-PDC complex spheroid growth
# protocol details: Anticancer human tumor 292921-168-R-J2-PDC cell line growth inhibition [AhR];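 note: spheroids exposed to compounds for seven days after three days of growth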
# reported conditions: second compound 0.316 µM; first compound 0.316 µM; hits give low values
Quick reference for viability, T/C among some compounds
Dear colleague, please return just the value in %, with no unit written.

Examples with their reported viability, T/C follow.
compound	target or test system	viability, T/C, %
CC1(C)CCC(CN2CCN(c3ccc(C(=O)NS(=O)(=O)c4ccc(NCC5CCOCC5)c([N+](=O)[O-])c4)c(Oc4cnc5[nH]ccc5c4)c3)CC2)=C(c2ccc(Cl)cc2)C1 + Cc1cncc(-c2nc(NCCc3c[nH]c4ccccc34)c3ncn(C(C)C)c3n2)c1	292921-168-R-J2-PDC complex spheroid growth	105
COc1ccc([C@@H](O)c2cc(-c3ncnc4cc(N5CCOCC5)ccc34)c(F)cc2Cl)nn1 + CC(CO)NC(=O)c1cc(-c2ccc(Cl)cc2)nn(-c2cnn(C)c2)c1=O	292921-168-R-J2-PDC complex spheroid growth	87
Nc1ncn(C2CC(O)C(CO)O2)c(=O)n1 (stereo unspecified) + Cc1cncc(-c2nc(NCCc3c[nH]c4ccccc34)c3ncn(C(C)C)c3n2)c1	292921-168-R-J2-PDC complex spheroid growth	78.6
Nc1ccccc1NC(=O)c1ccc(CNC(=O)OCc2cccnc2)cc1 + Cc1cncc(-c2nc(NCCc3c[nH]c4ccccc34)c3ncn(C(C)C)c3n2)c1	292921-168-R-J2-PDC complex spheroid growth	49.7
Nc1ccccc1NC(=O)c1ccc(CNC(=O)OCc2cccnc2)cc1 + CC(CO)NC(=O)c1cc(-c2ccc(Cl)cc2)nn(-c2cnn(C)c2)c1=O	292921-168-R-J2-PDC complex spheroid growth	44.3

Now let's try a different one.
Write down viability, T/C measured for item O=C(c1cc(Cc2n[nH]c(=O)c3ccccc23)ccc1F)N1CCN(C(=O)C2CC2)CC1 + Cc1ccccc1N=Nc1ccc(NC(=O)c2ccnn2C)c(C)c1
86.8

----------
# System: 292921-168-R-J2-PDC complex spheroid growth
# protocol details: Anticancer human tumor 292921-168-R-J2-PDC cell line growth inhibition [AhR];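 note: spheroids exposed to compounds for seven days after three days of growth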
# reported conditions: second compound 0.1 µM; first compound 0.3 µM; hits give low values
Mark fulfilled only when viability, T/C stays strictly below 3%. Values equal to the cut-off are not fulfilled.

See these solved cases before continuing.
compound	target or test system	qualitative label
CCc1c2c(nc3ccc(O)cc13)-c1cc3c(c(=O)n1C2)COC(=O)[C@]3(O)CC + CC(CO)NC(=O)c1cc(-c2ccc(Cl)cc2)nn(-c2cnn(C)c2)c1=O	292921-168-R-J2-PDC complex spheroid growth	not fulfilled
CC(C)CC(NC(=O)C(Cc1ccccc1)NC(=O)c1cnccn1)B(O)O (stereo not given) + CC(CO)NC(=O)c1cc(-c2ccc(Cl)cc2)nn(-c2cnn(C)c2)c1=O	292921-168-R-J2-PDC complex spheroid growth	fulfilled
CCN(c1cc(-c2ccc(CN3CCOCC3)cc2)cc(C(=O)NCc2c(C)cc(C)[nH]c2=O)c1C)C1CCOCC1 + CC(CO)NC(=O)c1cc(-c2ccc(Cl)cc2)nn(-c2cnn(C)c2)c1=O	292921-168-R-J2-PDC complex spheroid growth	not fulfilled
O=C(C=Cn1cnc(-c2cc(C(F)(F)F)cc(C(F)(F)F)c2)n1)NNc1cnccn1 + Cc1ccccc1N=Nc1ccc(NC(=O)c2ccnn2C)c(C)c1	292921-168-R-J2-PDC complex spheroid growth	not fulfilled

Is 3% strictly greater than the compound's reported viability, T/C? compound: CC(C)CC(NC(=O)C(Cc1ccccc1)NC(=O)c1cnccn1)B(O)O (stereo not given) + Cc1cncc(-c2nc(NCCc3c[nH]c4ccccc34)c3ncn(C(C)C)c3n2)c1
fulfilled

Check if viability, T/C falls below 3% for O=C(C=Cn1cnc(-c2cc(C(F)(F)F)cc(C(F)(F)F)c2)n1)NNc1cnccn1 + CC(CO)NC(=O)c1cc(-c2ccc(Cl)cc2)nn(-c2cnn(C)c2)c1=O .
not fulfilled

Please check: viability, T/C for Nc1ncn(C2CC(O)C(CO)S2)c(=O)n1 (stereo not given) + Cc1ccccc1N=Nc1ccc(NC(=O)c2ccnn2C)c(C)c1 , strictly under 3% or not?
not fulfilled

Identify whether the compound CC(C)CC(NC(=O)C(Cc1ccccc1)NC(=O)c1cnccn1)B(O)O (stereo not given) + Cc1ccccc1N=Nc1ccc(NC(=O)c2ccnn2C)c(C)c1 records viability, T/C below 3%.
fulfilled

Quick check: viability, T/C of CCc1c2c(nc3ccc(O)cc13)-c1cc3c(c(=O)n1C2)COC(=O)[C@]3(O)CC + Cc1ccccc1N=Nc1ccc(NC(=O)c2ccnn2C)c(C)c1 under 3%?
fulfilled
